Reference for the values: paper PMC9071858

assay: Pharmacokinetic study in normal control (NC) mice after oral administration of SMYAD; assay type: in vivo, mouse; conditions: male, C57BL/6J, mouse, po, 35 g/kg/day; NC mice, plasma, SMYAD intragastric 35 g/kg/d for seven days, mean ± SD, n = 5; read-out: AUC0–t
List of AUC(0-t) values.

Below, 3 compounds whose answers are already recorded.
# input Answer with the recorded AUC(0-t) of O=C(/C=C/c1ccc(O)c(O)c1)O[C@@H]1C[C@](O)(C(=O)O)C[C@@H](O)[C@H]1O [Chlorogenic acid, chlorogenic acid] only.
# output 1110 ng·h/mL

# input Consider the compound COc1ccc(CCO[C@@H]2O[C@H](CO[C@@H]3OC[C@H](O)[C@H](O)[C@H]3O)[C@@H](OC(=O)/C=C/c3ccc(O)c(OC)c3)[C@H](O[C@@H]3O[C@@H](C)[C@H](O)[C@@H](O)[C@H]3O)[C@H]2O)cc1O [Angoroside C, angoroside C] and give its recorded AUC(0-t).
# output 1730 ng·h/mL

# input Read off the recorded AUC(0-t) for O=C(/C=C/c1ccc(O)cc1)c1ccc(O)cc1O [Isoliquiritigenin, isoliquiritigenin]
# output 1040 ng·h/mL

Here is another compound to look at.
# input Tell me AUC(0-t) reported for C=C[C@H]1[C@H](O[C@@H]2O[C@H](CO)[C@@H](O)[C@H](O)[C@H]2O)OC=C2C(=O)OCC[C@]21O [Swertiamarin, swertiamarin]
# output 5350 ng·h/mL

---

# maps each entry to its AUC(0-t)
Assay: Pharmacokinetic study in normal control (NC) mice after oral administration of SMYAD
Assay type: in vivo, mouse
Conditions: male, C57BL/6J, mouse, in vivo, po, 35 g/kg/day
Protocol: Male C57BL/6J mice and ApoE^−/− mice on a C57BL/6 background (7 weeks old, 18–22 g) were purchased from Beijing Vital River Laboratory Animal Technology Co., Ltd. (Beijing, China, Certificate No.: SCXK (Jing) 2016-0006). […] A Vanquish UHPLC™ system (Thermo Fisher Scientific Inc., USA) was used for the analysis. […] The quantitative analysis gradient program was as follows: 0-1 min, 0 B; 1–6 min, 0–100% B; 6–12 min, 100% B; 12–12.1 min, 100%-0 B; 12.1–15 min, 0 B. The injection volume was 5 μL. […]
// units = ng·h/mL; emit number, no label

# input Report measured AUC(0-t); entry is `O=C1C[C@@H](c2ccc(O[C@@H]3O[C@H](CO)[C@@H](O)[C@H](O)[C@H]3O)cc2)Oc2cc(O)ccc21`
# output 607

Here's the next entry for you.
# input Specify AUC(0-t) for C=C[C@H]1[C@H](O[C@@H]2O[C@H](CO)[C@@H](O)[C@H](O)[C@H]2O)OC=C2C(=O)OCC[C@H]21 [Sweroside, sweroside] and stop.
# output 6980

---

assay: Pharmacokinetic study in atherosclerosis (AS) model ApoE−/− mice after oral administration of SMYAD; format: in vivo, mouse; details: male, ApoE−/− on a C57BL/6 background, mouse, in vivo, po, 35 g/kg/day
VALUE_KIND: AUC(0-inf) (ng·h/mL)
Return type: number; implicit unit ng·h/mL.

# input Return AUC(0-inf) (reported value) for this compound: C=C[C@H]1[C@H](O[C@@H]2O[C@H](CO)[C@@H](O)[C@H](O)[C@H]2O)OC=C2C(=O)OCC[C@H]21 [Sweroside, sweroside]
# output 8930

Next:
# input Hello, please tell me recorded AUC(0-inf) for this one: `O=C1C[C@@H](c2ccc(O[C@@H]3O[C@H](CO)[C@@H](O)[C@H](O)[C@H]3O)cc2)Oc2cc(O)ccc21`
# output 482

---

Listing of entries alongside the reported Cmax.
Assay: Pharmacokinetic study in normal control (NC) mice after oral administration of SMYAD
Type: in vivo, mouse
Details: male, C57BL/6J, mouse, po, 35 g/kg/day; NC mice, plasma, SMYAD intragastric 35 g/kg/d for seven days, mean ± SD, n = 5; read-out: C max
Protocol: Male C57BL/6J mice and ApoE^−/− mice on a C57BL/6 background (7 weeks old, 18–22 g) were purchased from Beijing Vital River Laboratory Animal Technology Co., Ltd. (Beijing, China, Certificate No.: SCXK (Jing) 2016-0006). […] A Vanquish UHPLC™ system (Thermo Fisher Scientific Inc., USA) was used for the analysis. […] The quantitative analysis gradient program was as follows: 0-1 min, 0 B; 1–6 min, 0–100% B; 6–12 min, 100% B; 12–12.1 min, 100%-0 B; 12.1–15 min, 0 B. The injection volume was 5 μL. […]
// note: answer is a bare numeric in ng/mL

These recorded examples may help you get a feel for the data.
# input Identify measured Cmax associated with COc1ccc(CCO[C@@H]2O[C@H](CO[C@@H]3OC[C@H](O)[C@H](O)[C@H]3O)[C@@H](OC(=O)/C=C/c3ccc(O)c(OC)c3)[C@H](O[C@@H]3O[C@@H](C)[C@H](O)[C@@H](O)[C@H]3O)[C@H]2O)cc1O [Angoroside C, angoroside C]
# output 289

# input Query Cmax for `O=C(/C=C/c1ccc(O)c(O)c1)O[C@@H]1C[C@](O)(C(=O)O)C[C@@H](O)[C@H]1O`
# output 267

# input Look up Cmax of `O=C(/C=C/c1ccc(O)cc1)c1ccc(O)cc1O` and report it.
# output 175

For the next question, use this molecule.
# input Input `C=C[C@H]1[C@H](O[C@@H]2O[C@H](CO)[C@@H](O)[C@H](O)[C@H]2O)OC=C2C(=O)OCC[C@]21O` , output reported Cmax.
# output 1430

---

Assay: Pharmacokinetic study in normal control (NC) mice after oral administration of SMYAD
Type: in vivo, mouse
Conditions: NC mice, plasma, SMYAD intragastric 35 g/kg/d for seven days, mean ± SD, n = 5
Protocol: Male C57BL/6J mice and ApoE^−/− mice on a C57BL/6 background (7 weeks old, 18–22 g) were purchased from Beijing Vital River Laboratory Animal Technology Co., Ltd. (Beijing, China, Certificate No.: SCXK (Jing) 2016-0006). […] A Vanquish UHPLC™ system (Thermo Fisher Scientific Inc., USA) was used for the analysis. […] The quantitative analysis gradient program was as follows: 0-1 min, 0 B; 1–6 min, 0–100% B; 6–12 min, 100% B; 12–12.1 min, 100%-0 B; 12.1–15 min, 0 B. The injection volume was 5 μL. […]
Listing of recorded Vz/F by entry.
Answer format: numeric, L/mg implied, no suffix.

# input Tell me Vz/F reported for `O=C(/C=C/c1ccc(O)c(O)c1)O[C@@H]1C[C@](O)(C(=O)O)C[C@@H](O)[C@H]1O`
# output 247.01

# input Provide measured Vz/F value, entry: COc1ccc(CCO[C@@H]2O[C@H](CO[C@@H]3OC[C@H](O)[C@H](O)[C@H]3O)[C@@H](OC(=O)/C=C/c3ccc(O)c(OC)c3)[C@H](O[C@@H]3O[C@@H](C)[C@H](O)[C@@H](O)[C@H]3O)[C@H]2O)cc1O [Angoroside C, angoroside C]
# output 148.22

# input Read the entry `O=C(/C=C/c1ccc(O)cc1)c1ccc(O)cc1O` and write its reported Vz/F.
# output 198.37

# input Supply reported Vz/F belonging to this molecule: `C=C[C@H]1[C@H](O[C@@H]2O[C@H](CO)[C@@H](O)[C@H](O)[C@H]2O)OC=C2C(=O)OCC[C@]21O`
# output 20.82

---

experiment: Pharmacokinetic study in atherosclerosis (AS) model ApoE−/− mice after oral administration of SMYAD; format: in vivo, mouse; details: male, ApoE−/− on a C57BL/6 background, mouse, po, 35 g/kg/day; AS mice, plasma, SMYAD intragastric 35 g/kg/d for seven days, mean ± SD, n = 5; read-out: AUC0–t
VALUE_KIND: AUC(0-t) (ng·h/mL)
I only need the number, in ng·h/mL, no unit after it.

Worked cases, answers included:
# input Item `O=C(/C=C/c1ccc(O)cc1)c1ccc(O)cc1O` : provide AUC(0-t)
# output 502

# input Identify measured AUC(0-t) associated with `C=C[C@H]1[C@H](O[C@@H]2O[C@H](CO)[C@@H](O)[C@H](O)[C@H]2O)OC=C2C(=O)OCC[C@]21O`
# output 5540

# input Return reported AUC(0-t). Input compound: `O=C(/C=C/c1ccc(O)c(O)c1)O[C@@H]1C[C@](O)(C(=O)O)C[C@@H](O)[C@H]1O`
# output 1560

For the next question, use this compound.
# input Respond only with AUC(0-t) recorded for COc1ccc(CCO[C@@H]2O[C@H](CO[C@@H]3OC[C@H](O)[C@H](O)[C@H]3O)[C@@H](OC(=O)/C=C/c3ccc(O)c(OC)c3)[C@H](O[C@@H]3O[C@@H](C)[C@H](O)[C@@H](O)[C@H]3O)[C@H]2O)cc1O [Angoroside C, angoroside C]
# output 1840
